# system under test: EGFR (Homo sapiens (Human))
# Sequence (P00533 25-1210): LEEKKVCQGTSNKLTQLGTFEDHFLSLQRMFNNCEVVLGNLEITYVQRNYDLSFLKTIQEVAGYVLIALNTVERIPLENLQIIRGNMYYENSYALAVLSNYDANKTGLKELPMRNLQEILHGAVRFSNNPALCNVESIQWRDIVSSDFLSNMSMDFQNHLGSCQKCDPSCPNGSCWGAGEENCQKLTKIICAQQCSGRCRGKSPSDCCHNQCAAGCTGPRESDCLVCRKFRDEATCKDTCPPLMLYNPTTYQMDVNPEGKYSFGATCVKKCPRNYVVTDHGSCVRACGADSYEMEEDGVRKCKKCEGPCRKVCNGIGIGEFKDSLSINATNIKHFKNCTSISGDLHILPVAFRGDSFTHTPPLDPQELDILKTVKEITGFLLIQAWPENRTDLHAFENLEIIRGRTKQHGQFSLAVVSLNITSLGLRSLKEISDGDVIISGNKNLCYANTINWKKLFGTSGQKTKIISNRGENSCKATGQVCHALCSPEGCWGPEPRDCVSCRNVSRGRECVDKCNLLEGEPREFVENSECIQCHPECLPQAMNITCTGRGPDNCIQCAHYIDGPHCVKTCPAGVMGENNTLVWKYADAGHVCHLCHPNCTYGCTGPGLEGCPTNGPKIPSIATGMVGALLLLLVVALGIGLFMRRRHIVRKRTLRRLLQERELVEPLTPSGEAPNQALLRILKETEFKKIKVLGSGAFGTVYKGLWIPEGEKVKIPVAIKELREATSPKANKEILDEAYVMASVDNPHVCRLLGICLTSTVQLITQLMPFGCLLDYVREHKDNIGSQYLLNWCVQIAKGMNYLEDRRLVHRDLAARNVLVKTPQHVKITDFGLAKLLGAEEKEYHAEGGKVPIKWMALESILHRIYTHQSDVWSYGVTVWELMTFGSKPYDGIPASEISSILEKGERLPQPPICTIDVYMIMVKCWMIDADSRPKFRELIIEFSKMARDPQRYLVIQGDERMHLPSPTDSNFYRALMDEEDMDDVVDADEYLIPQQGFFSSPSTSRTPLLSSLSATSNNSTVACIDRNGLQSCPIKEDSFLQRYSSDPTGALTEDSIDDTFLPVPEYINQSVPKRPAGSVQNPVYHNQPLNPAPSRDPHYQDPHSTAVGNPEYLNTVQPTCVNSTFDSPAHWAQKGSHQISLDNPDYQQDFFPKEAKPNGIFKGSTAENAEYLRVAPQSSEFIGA
# method summary: ErbB Enzyme Assay (HTRF KinEASE-TK), Assay 3
# Format: biochemical
# assay context: EGFR enzyme assay
quantity measured: IC50 (nM)

Illustrative cases are given below, each with its answer.
| compound | quantity measured | observed result |
| --- | --- | --- |
| C=CC(=O)N1C[C@H]2CC[C@@H]1[C@@H](c1ccc3ncnc(Nc4ccc(Oc5cnc6c(c5)ncn6C)c(C)c4F)c3n1)C2 | IC50 | 2990 |
| CC#CC(=O)N1C[C@@H]2C[C@H]1CN2c1ccc2ncnc(Nc3ccc(Oc4ccn5ncnc5c4)c(Cl)c3F)c2n1 | IC50 | 1970 |

(P) CCC(=O)N1CC([C@H](C)c2ccc3ncnc(Nc4ccc(Oc5ccn6ncnc6c5)c(C)c4F)c3n2)C1 (racemic)
(Q) C=CC(=O)N1CCN(c2ccc3ncnc(Nc4ccc(Oc5ccn6ncnc6c5)c(C)c4F)c3n2)C[C@@H]1C(C)(C)C
Record comparison, field IC50: mark the lower of P and Q . // return label of chosen record
Q

---

# system under test: UniProt:P00533
# method summary: ErbB Enzyme Assay (HTRF KinEASE-TK), Assay 3
# Type: biochemical
# assay context: EGFR enzyme
# Protocol: The kinases were incubated with 250 nM TK-substrate biotin (CisBio, part of cat #62TKOPEC) at 1 mM ATP along with test compounds in a buffer consisting of 25 mM HEPES, pH 7.4, 10 mM MgCl2, 0.01% Triton X-100, and 2% DMSO in a volume of 8 μL. […] After 30-minute incubation at 22° C., the reaction was quenched by adding 8 μL of quench solution containing 62.5 nM Sa-XL665 and 0.25×TK-Ab-Cryptate in HTRF detection buffer (all from CisBio, part of cat #62TKOPEC). […]
quantity measured: IC50 (µM)

| molecule | quantity measured | observed result |
| --- | --- | --- |
| C=CC(=O)N1CCCC[C@@H](c2ccc3ncnc(Nc4ccc(Oc5ccc6c(c5)ncn6C)c(C)c4F)c3n2)C1 (racemic) | IC50 | 0.41 |
| C=CC(=O)N1[C@@H]2CC[C@H]1CC(c1ccc3ncnc(Nc4cc(C)c(Oc5ccn6ncnc6c5)cc4F)c3n1)C2 (stereo partly drawn) | IC50 | 5.8 |
| C=CC(=O)N1[C@@H]2CC[C@H]1C[C@@H](c1ccc3ncnc(Nc4ccc(Oc5ccn6ncnc6c5)c(Cl)c4F)c3n1)C2 | IC50 | 0.279 |

(a) C=CC(=O)N1CCN(c2ccc3ncnc(Nc4ccc(Oc5ccn6ncnc6c5)c(Cl)c4F)c3n2)C[C@@H]1C(F)(F)F
(b) C=CC(=O)N1C[C@@H]2C[C@H]1C[C@H]2c1ccc2ncnc(Nc3ccc(Oc4ccn5ncnc5c4)c(C)c3F)c2n1 (racemic)
(c) C=CC(=O)N1[C@H](C)CN(c2ccc3ncnc(Nc4ccc(Oc5ccc6c(c5)ncn6C)c(C)c4)c3n2)C[C@@H]1C
(d) C=CC(=O)N1CCC[C@@H](c2ccc3ncnc(Nc4ccc(Oc5ccn6ncnc6c5)c(C)c4F)c3n2)CC1 (single isomer, unassigned) [Example 209]
(e) C=CC(=O)N1CCN(c2ccc3ncnc(Nc4ccc(Oc5cnc6c(c5)ncn6C)c(Cl)c4)c3n2)CC1(C)C
Highest IC50 first, then in falling order down to the smallest. # answer = labels listed in requested order
c, e, d, b, a

---

# system under test: ErbB2 WT (Homo sapiens (Human), UniProt P04626)
# Sequence (P04626 23-1255): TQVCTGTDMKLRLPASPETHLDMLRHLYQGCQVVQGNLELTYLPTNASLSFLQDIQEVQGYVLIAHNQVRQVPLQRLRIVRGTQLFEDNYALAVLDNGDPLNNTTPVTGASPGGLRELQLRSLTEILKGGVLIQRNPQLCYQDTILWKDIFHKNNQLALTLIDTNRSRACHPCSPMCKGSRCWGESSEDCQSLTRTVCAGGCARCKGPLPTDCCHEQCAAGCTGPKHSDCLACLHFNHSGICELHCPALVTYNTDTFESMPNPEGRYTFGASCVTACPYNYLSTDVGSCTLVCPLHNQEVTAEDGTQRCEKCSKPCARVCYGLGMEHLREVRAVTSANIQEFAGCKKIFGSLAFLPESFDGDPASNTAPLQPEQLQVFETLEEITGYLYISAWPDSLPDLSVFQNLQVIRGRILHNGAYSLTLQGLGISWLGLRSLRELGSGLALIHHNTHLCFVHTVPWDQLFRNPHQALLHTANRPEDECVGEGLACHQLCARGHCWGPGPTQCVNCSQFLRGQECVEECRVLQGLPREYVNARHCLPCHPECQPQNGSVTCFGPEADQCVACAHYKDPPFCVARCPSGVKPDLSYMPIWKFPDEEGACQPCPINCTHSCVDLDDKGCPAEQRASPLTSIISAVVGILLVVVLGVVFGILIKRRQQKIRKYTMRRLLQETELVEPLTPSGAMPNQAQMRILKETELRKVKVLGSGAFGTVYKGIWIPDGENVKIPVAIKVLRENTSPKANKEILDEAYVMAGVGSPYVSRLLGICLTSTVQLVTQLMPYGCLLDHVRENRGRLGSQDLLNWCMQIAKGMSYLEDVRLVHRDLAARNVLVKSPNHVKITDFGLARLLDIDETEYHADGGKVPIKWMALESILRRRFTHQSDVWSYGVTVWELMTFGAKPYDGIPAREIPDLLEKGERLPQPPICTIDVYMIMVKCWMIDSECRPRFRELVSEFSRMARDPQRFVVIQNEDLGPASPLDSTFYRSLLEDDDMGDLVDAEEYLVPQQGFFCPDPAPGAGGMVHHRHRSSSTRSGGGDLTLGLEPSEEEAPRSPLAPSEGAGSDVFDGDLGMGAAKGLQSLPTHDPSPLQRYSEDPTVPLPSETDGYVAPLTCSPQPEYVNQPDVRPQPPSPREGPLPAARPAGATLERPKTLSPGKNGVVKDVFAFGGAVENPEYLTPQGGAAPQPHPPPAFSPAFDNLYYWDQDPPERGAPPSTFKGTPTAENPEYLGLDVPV
# method summary: ErbB Enzyme Assay (HTRF KinEASE-TK), Assay 2
# Format: biochemical
# assay context: ErbB2 WT enzyme
pIC50: −log10 of the molar value.
quantity measured: pIC50

Illustrative cases are given below, each with its answer.
| compound | observed result |
| --- | --- |
| CC#CC(=O)N1CCN(c2ccc3ncnc(Nc4ccc(Oc5ccn6ncnc6c5)c(C)c4F)c3n2)CC1(C)C [Example 179] | 7.13 |
| C=CC(=O)N1C[C@H]2C[C@H](c3ccc4ncnc(Nc5ccc(Oc6ccn7ncnc7c6)c(Cl)c5F)c4n3)[C@@H]1C2 [Example 230] | 7.87 |
| C=CC(=O)N1CCN(c2ccc3ncnc(Nc4cc(C)c(Oc5ccn6ncnc6c5)cc4F)c3n2)CC1 [Example 79] | 6.98 |
| C=CC(=O)N(C)c1ccc2ncnc(Nc3ccc(Oc4ccc5c(c4)ncn5C)c(C)c3)c2n1 [Example 23] | 7.14 |
| C=CC(=O)N1C2CCC1CC(c1ccc3ncnc(Nc4ccc(Oc5ccc6c(c5)ncn6C)c(C)c4)c3n1)C2 (centres unmarked) [Example 122] | 8.03 |

(a) C=CC(=O)N1CC[C@@H]2C[C@H]1CN2c1ccc2ncnc(Nc3ccc(Oc4ccc5c(c4)ncn5C)c(C)c3F)c2n1 [Example 29]
(b) C=CC(=O)N1CCN(c2nc3c(Nc4ccc(Oc5ccn6ncnc6c5)c(Cl)c4F)ncnc3cc2OC)CC1 [Example 148]
(c) C=CC(=O)N1CCN(c2ccc3ncnc(Nc4ccc(Oc5ccn6ncnc6c5)c(Cl)c4F)c3n2)C[C@H]1C [Example 91]
(d) C=CC(=O)N1CCC(c2nc3c(Nc4ccc(Oc5ccn6ncnc6c5)c(C)c4F)ncnc3cc2OC)CC1 [Example 155]
(e) C=CC(=O)N1CC[C@@H]2C[C@H]1CN2c1ccc2ncnc(Nc3ccc(Oc4ccn5ncnc5c4)c(C)c3F)c2n1 [Example 65]
Highest pIC50 first, then in falling order down to the smallest. # answer = labels listed in requested order
b, c, e, a, d
(b: 9.22, c: 8.01, e: 7.76, a: 7.44, d: 5.01)

(P) C=CC(=O)N1C[C@@H]2CC[C@H]1C[C@H]2c1ccc2ncnc(Nc3ccc(Oc4ccn5ncnc5c4)c(C)c3F)c2n1 (single isomer, unassigned) [Example 235]
(Q) C=CC(=O)N1CC[C@H]2C[C@@H](c3ccc4ncnc(Nc5cc(C)c(Oc6ccc7c(c6)ncn7C)cc5F)c4n3)C[C@H]21 (racemic) [Example 37]
Pick one: P or Q . Which has the bigger pIC50 number? // return label of chosen record
P
(P: 7.51, Q: 6.92)

(1) C=CC(=O)N1C[C@H]2C[C@@H]1[C@H](c1ccc3ncnc(Nc4ccc(Oc5ccn6ncnc6c5)c(Cl)c4F)c3n1)C2 [Example 231]
(2) C=CC(=O)N1CCCN(c2ccc3ncnc(Nc4ccc(Oc5ccc6c(c5)ncn6C)c(C)c4F)c3n2)CC1(C)C [Example 69]
Pick one: 1 or 2 . Which has the bigger pIC50 number? // return label of chosen record
1

(1) C=CC(=O)N1CCC(Sc2ccc3ncnc(Nc4cc(C)c(Oc5ccc6c(c5)ncn6C)cc4F)c3n2)CC1 [Example 64]
(2) CC#CC(=O)N1CCC12CN(c1ccc3ncnc(Nc4cc(C)c(Oc5ccn6ncnc6c5)cc4F)c3n1)C2 [Example 188]
(3) C=CC(=O)N1CCC(Oc2ccc3ncnc(Nc4ccc(Oc5ccc6sc(C)nc6c5)c(C)c4F)c3n2)CC1 [Example 10]
(4) C=CC(=O)N1CCN(c2ccc3ncnc(Nc4ccc(Oc5ccn6ncnc6c5)c(Cl)c4)c3n2)CC1(C)C [Example 74]
Highest pIC50 first, then in falling order down to the smallest. # answer = labels listed in requested order
4, 1, 2, 3

(a) C=CC(=O)N1CCCN(c2nc3c(Nc4ccc(Oc5ccn6ncnc6c5)c(Cl)c4F)ncnc3cc2OC)CC1 [Example 153]
(b) C=CC(=O)N1CCCCC(c2ccc3ncnc(Nc4ccc(Oc5ccc6c(c5)ncn6C)c(C)c4)c3n2)C1 (centres unmarked) [Example 126]
Record comparison, field pIC50: mark the lower of a and b . // return label of chosen record
b
(b: 7.91, a: 8.40)

(I) C=CC(=O)N1CC(Sc2ccc3ncnc(Nc4ccc(Oc5ccc6c(c5)ncn6C)c(C)c4F)c3n2)C1 [Example 61]
(II) C=CC(=O)N1CCN(c2ccc3ncnc(Nc4ccc(Oc5ccn6ncnc6c5)c(C)c4F)c3n2)C[C@@H]1C1CC1 (racemic) [Example 163]
Pick one: I or II . Which has the bigger pIC50 number? // return label of chosen record
I

---

# system under test: ErbB2 WT (Homo sapiens (Human), UniProt P04626)
# method summary: ErbB Enzyme Assay (HTRF KinEASE-TK), Assay 2
# Format: biochemical
# assay context: ErbB2 WT enzyme assay
quantity measured: IC50 (nM)

(a) C=CC(=O)N1CC[C@H]2C[C@@H]1CN2c1ccc2ncnc(Nc3cc(Cl)c(Oc4ccn5ncnc5c4)cc3F)c2n1
(b) C=CC(=O)N1C[C@@H](c2ccc3ncnc(Nc4ccc(Oc5ccn6ncnc6c5)c(C)c4F)c3n2)C[C@@H]1C (mixture of isomers)
Record comparison, field IC50: mark the lower of a and b . // return label of chosen record
b
(b: 28.3 nM, a: 148 nM)

---

# system under test: BCRP (Homo sapiens (Human), UniProt Q9UNQ0)
# Sequence (Q9UNQ0 whole entry): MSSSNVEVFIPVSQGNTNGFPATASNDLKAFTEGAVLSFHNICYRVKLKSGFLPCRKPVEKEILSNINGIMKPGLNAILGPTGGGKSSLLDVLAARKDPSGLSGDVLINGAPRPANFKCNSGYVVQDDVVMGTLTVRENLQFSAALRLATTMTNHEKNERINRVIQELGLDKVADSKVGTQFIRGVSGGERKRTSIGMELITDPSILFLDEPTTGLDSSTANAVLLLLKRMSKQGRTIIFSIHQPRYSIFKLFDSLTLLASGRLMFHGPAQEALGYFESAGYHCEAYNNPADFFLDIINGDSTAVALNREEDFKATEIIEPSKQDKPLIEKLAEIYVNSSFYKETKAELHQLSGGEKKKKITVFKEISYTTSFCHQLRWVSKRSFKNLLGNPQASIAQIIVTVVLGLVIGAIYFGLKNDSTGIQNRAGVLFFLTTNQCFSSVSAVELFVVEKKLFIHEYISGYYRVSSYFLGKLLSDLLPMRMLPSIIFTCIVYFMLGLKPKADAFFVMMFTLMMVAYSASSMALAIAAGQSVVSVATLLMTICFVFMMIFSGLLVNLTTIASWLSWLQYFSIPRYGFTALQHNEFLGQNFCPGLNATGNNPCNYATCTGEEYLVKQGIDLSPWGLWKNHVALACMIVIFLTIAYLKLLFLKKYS
# method summary: BCRP MDCKII efflux assay (Assay 7)
# Assay type: in vitro ADME
# assay context: dog; efflux ratio Papp(B-A)/Papp(A-B), BCRP MDCKII cells; read-out: Assay 7 Pe Ratio
quantity measured: efflux ratio at 2 h, 1 µM

| compound | efflux ratio at 2 h, 1 µM |
| --- | --- |
| C=CC(=O)N1CCCC[C@@H](c2ccc3ncnc(Nc4ccc(Oc5ccc6c(c5)ncn6C)c(C)c4F)c3n2)C1 (racemic) | 1.4 |

(1) Cc1c(Oc2ccn3ncnc3c2)ccc(Nc2ncnc3ccc(N4CCN(C#N)C(C)(C)C4)nc23)c1F
(2) C=CC(=O)N1CCC(c2ccc3ncnc(Nc4ccc(Oc5ccn6ncnc6c5)c(C)c4F)c3n2)CC12CC2 (stereo not drawn)
Pick one: 1 or 2 . Which has the bigger efflux ratio at 2 h, 1 µM number? // return label of chosen record
1
(1: 4.2, 2: 1.1)

(A) C=CC(=O)N1CCN(c2ccc3ncnc(Nc4cc(C)c(Oc5ccc6c(c5)ncn6C)cc4F)c3n2)CC1(C)C
(B) C=CC(=O)N1CC[C@@H]2C[C@H](c3ccc4ncnc(Nc5cc(C)c(Oc6ccn7ncnc7c6)cc5F)c4n3)C[C@@H]21 (single isomer, unassigned)
Record comparison, field efflux ratio at 2 h, 1 µM: mark the lower of A and B . // return label of chosen record
B

(I) C=CC(=O)N1CC[C@H]2CN(c3ccc4ncnc(Nc5ccc(Oc6ccn7ncnc7c6)c(Cl)c5F)c4n3)C[C@H]21
(II) C=CC(=O)N1CCC(Oc2ccc3ncnc(Nc4ccc(Oc5ccc6cn(C)nc6c5)c(C)c4)c3n2)CC1
(III) C=CC(=O)N1CCN(c2ccc3ncnc(Nc4cc(C)c(Oc5cnc6c(c5)ncn6C)cc4F)c3n2)C[C@@H]1C1CC1
(IV) C=CC(=O)N1CCN(c2ccc3ncnc(Nc4ccc(Oc5ccc6c(c5)ncn6C)c(C(F)F)c4)c3n2)CC1
Highest efflux ratio at 2 h, 1 µM first, then in falling order down to the smallest. # answer = labels listed in requested order
IV, III, I, II
(IV: 20.3, III: 7.2, I: 3, II: 1.5)

(A) C=CC(=O)N1CCC(Sc2nc3c(Nc4ccc(Oc5ccc6c(c5)ncn6C)c(C)c4)ncnc3cc2OC)CC1
(B) C=CC(=O)N1CCN(c2ccc3ncnc(Nc4cc(C)c(Oc5cnc6c(c5)ncn6C)cc4F)c3n2)CC1(C)C
(C) C=CC(=O)N1C[C@@H](c2ccc3ncnc(Nc4ccc(Oc5ccc6c(c5)ncn6C)c(C)c4F)c3n2)C[C@@H]1C
(D) C=CC(=O)N1CCCN(c2ccc3ncnc(Nc4ccc(Oc5ccn6ncnc6c5)c(Cl)c4F)c3n2)CC1(C)C
rank_up(items): orders items by reported efflux ratio at 2 h, 1 µM in ascending numerical order. # answer = labels listed in requested order
C, D, B, A

(1) C=CC(=O)N1CCN(c2ccc3ncnc(Nc4ccc(Oc5ccn6ncnc6c5)c(Cl)c4F)c3n2)CC1
(2) C=CC(=O)N1CCC(c2ccc3ncnc(Nc4ccc(Oc5ccc6c(c5)ncn6C)c(C)c4)c3n2)C1 (racemic)
Record comparison, field efflux ratio at 2 h, 1 µM: mark the lower of 1 and 2 . // return label of chosen record
1
(1: 5, 2: 15.8)

(P) C=CC(=O)N1C[C@H]2CC[C@@H]1CN2c1ccc2ncnc(Nc3ccc(Oc4ccn5ncnc5c4)c(C)c3F)c2n1
(Q) C=CC(=O)N1C[C@H](c2ccc3ncnc(Nc4cc(C)c(Oc5ccc6c(c5)ncn6C)cc4F)c3n2)C[C@H]1C
(R) C=CC(=O)N1CCC(c2ccc3ncnc(Nc4ccc(Oc5cnc6c(c5)ncn6C)c(Cl)c4)c3n2)CC1
rank_up(items): orders items by reported efflux ratio at 2 h, 1 µM in ascending numerical order. # answer = labels listed in requested order
Q, P, R
(Q: 2.1, P: 4.8, R: 37)

(1) C=CC(=O)N1C[C@@H]2CC[C@H]1CN2c1ccc2ncnc(Nc3cc(C)c(Oc4ccn5ncnc5c4)cc3F)c2n1
(2) C=CC(=O)N1C[C@H]2C[C@@H]1CN2c1ccc2ncnc(Nc3ccc(Oc4ccc5c(c4)ncn5C)c(C)c3F)c2n1
Record comparison, field efflux ratio at 2 h, 1 µM: mark the lower of 1 and 2 . // return label of chosen record
1

(I) C=CC(=O)N1CCN(c2ccc3ncnc(Nc4ccc(Oc5ccc6c(c5)ncn6C)c(Cl)c4F)c3n2)CC1(C)C
(II) C=CC(=O)N1CCCN(c2ccc3ncnc(Nc4ccc(Oc5ccc6c(c5)ncn6C)c(C)c4F)c3n2)CC1(C)C
Record comparison, field efflux ratio at 2 h, 1 µM: mark the lower of I and II . // return label of chosen record
II

The measurements presented in this section are drawn from patent US12447153B2.
